tested on: Plasmodium yoelii; assay: Antimalarial activity against multidrug-resistant Plasmodium yoelii infected in Swiss mouse assessed as animal survival at 96 mg/kg, im for 4 days and measured for 28 days; format: functional; settings: 672 h, time 28 day
readout type: survival at 96 mg/kg (%)
Numbers only, in %.

Take a look at these entries with their results.
C=C(c1ccc(Oc2ccc(OCCOC(=O)CCC(=O)O)cc2)cc1)C1COC2(CCCCC2)OO1 (stereo unspecified); 0
C=C(c1ccc(Oc2ccc(OCCO)cc2)cc1)C1COC2(CCCC2)OO1 (stereo unspecified); 0
C=C(c1ccc(Oc2ccc(OCCO)cc2)cc1)C1COC2(OO1)C1CC3CC(C1)CC2C3 (stereo unspecified); 0
C=C(c1ccc(Oc2ccc(OCCO)cc2)cc1)C1COC2(CCCCC2)OO1 (stereo unspecified); 0
C=C(c1ccc(Oc2ccc(OCCOC(=O)CCC(=O)O)cc2)cc1)C1COC2(OO1)C1CC3CC(C1)CC2C3 (stereo unspecified); 40

Query string: Give its survival at 96 mg/kg value. Item: C=C(c1ccc(Oc2ccc(OCCOC(=O)CCC(=O)O)cc2)cc1)C1COC2(CCCC2)OO1 (stereo unspecified)
Result string: 0

Data provenance: ChEMBL document CHEMBL4808228
